- ASSAYED_TARGET: Kir7.1 (hKir7.1) (Homo sapiens, UniProt O60928)
- Sequence (O60928 whole entry): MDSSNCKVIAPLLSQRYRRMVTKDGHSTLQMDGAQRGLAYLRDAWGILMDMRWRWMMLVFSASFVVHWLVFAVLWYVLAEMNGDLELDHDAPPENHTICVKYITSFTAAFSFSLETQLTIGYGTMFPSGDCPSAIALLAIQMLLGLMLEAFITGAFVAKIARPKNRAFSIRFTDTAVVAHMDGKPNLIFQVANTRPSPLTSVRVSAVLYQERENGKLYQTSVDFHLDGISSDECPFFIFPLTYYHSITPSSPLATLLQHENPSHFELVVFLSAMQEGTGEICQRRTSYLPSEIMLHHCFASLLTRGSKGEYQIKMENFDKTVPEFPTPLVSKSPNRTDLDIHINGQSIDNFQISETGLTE
- ASSAY_METHOD_TEXT: whole-cell patch clamp, inhibition of P4-activated current
VALUE_KIND: IC50 (µM)
Numeric answer only, unit µM assumed.

Q. Form field: reported IC50 of C[C@]12CC[C@@H]3c4ccc(O)cc4CC[C@H]3[C@@H]1CC[C@@H]2O [E2, 17β-estradiol]
A. 8.6
